This collection of values is drawn from patent US20080221134A1.

Give measured pKi for each item. Keep answers brief.
biological target: A2A-adenosine receptor human recombinant (Homo sapiens); construct: expressed in transfected cells; assay: Radioligand binding assay 1, human recombinant A2A adenosine receptor; settings: human recombinant, [3H]MSX-2; read-out: A2A-adenosine receptor human recombinant [3H] MSX-2 Ki
Sequence (P29274 whole entry): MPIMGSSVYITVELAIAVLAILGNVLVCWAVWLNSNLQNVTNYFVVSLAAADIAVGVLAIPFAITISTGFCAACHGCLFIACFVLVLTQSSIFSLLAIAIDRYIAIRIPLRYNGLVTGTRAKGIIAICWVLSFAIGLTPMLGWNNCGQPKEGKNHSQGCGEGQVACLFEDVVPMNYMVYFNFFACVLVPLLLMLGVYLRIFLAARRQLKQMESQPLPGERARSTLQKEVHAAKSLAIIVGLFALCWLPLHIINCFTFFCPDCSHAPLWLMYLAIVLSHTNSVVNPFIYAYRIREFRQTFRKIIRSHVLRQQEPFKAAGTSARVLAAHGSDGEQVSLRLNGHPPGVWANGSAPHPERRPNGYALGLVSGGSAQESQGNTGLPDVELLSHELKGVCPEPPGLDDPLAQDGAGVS
# pKi: negative log10 of molar concentration; output just the value

Can you share its pKi? I mean this molecule: C#CCn1c(=O)c2c(nc(C#Cc3cncn3C)n2C)n(CC)c1=O [drawing 600]
7.09

Please give the result for C#CCn1c(=O)c2c(nc(C#Cc3ccc(OC)c(OC)c3)n2C)n(CC)c1=O [drawing 567] too.
7.75

Please give the result for C#CCn1c(=O)c2c(nc(C#Cc3ccc(OC)c(OC)c3)n2C)n(CCC)c1=O [drawing 584] too.
7.44

Please give the result for C#CCn1c(=O)c2c(nc(C#Cc3ccc(OCC)c(OCC)c3)n2C)n(CC)c1=O [drawing 573] too.
7.08

Please give the result for C#CCn1c(=O)c2c(nc(C#Cc3ccc(OC)c(OC)c3)n2C)n(CC(=O)OC)c1=O [drawing 598] too.
7.42

Please give the result for C#CCn1c(=O)c2c(nc(C#Cc3cccc(OC)c3)n2C)n(CC=C)c1=O [drawing 571] too.
7.45

Please give the result for C#CCn1c(=O)c2c(nc(C#Cc3ccc(OC)c(OC)c3)n2C)n(Cc2ccoc2)c1=O [drawing 583] too.
8.08

Please give the result for C#CCn1c(=O)c2c(nc(C#Cc3ccc(OC)c(OC)c3)n2C)n(CCN(C)C)c1=O [drawing 568] too.
7.29

Please give the result for C#CCn1c(=O)c2c(nc(C#Cc3ccc(OC)c(OC)c3)n2C)n(CCCOP(=O)(O)O)c1=O [drawing 570] too.
7.29

Please give the result for C#CCn1c(=O)c2c(nc(C#Cc3ccc(OC)c(OC)c3)n2C)n(CC2CC2)c1=O [drawing 590] too.
7.25

Please give the result for C#CCn1c(=O)c2c(nc(C#Cc3ccc(OC)c(OC)c3)n2C)n(CCC2CO2)c1=O (centres unmarked) [drawing 580] too.
7.02

Please give the result for C#CCn1c(=O)c2c(nc(C#Cc3ccc(OC)c(OC)c3)n2C)n(CCOC)c1=O [drawing 574] too.
7.26

Please give the result for C#CCn1c(=O)c2c(nc(C#Cc3cccc(OCCOC)c3)n2C)n(C)c1=O [drawing 559] too.
7.54

Please give the result for C#CCn1c(=O)c2c(nc(C#Cc3ccc(Cl)c(Cl)c3)n2C)n(CC)c1=O [drawing 597] too.
6.13

Please give the result for C#CCn1c(=O)c2c(nc(C#Cc3ccc(OC)c(OC)c3)n2C)n(CC(C)=O)c1=O [drawing 592] too.
6.56

Please give the result for C#CCn1c(=O)c2c(nc(C#Cc3cccc(OC)c3)n2C)n(CCCO)c1=O [drawing 564] too.
8.26
